The reported measurements were obtained from PubChem BioAssay AID1159580.

# Assay notes: chemical genetic growth profiling, strain panel (AID 1159580);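 also: tested at 20 µM; growth read once vehicle control cultures reached saturation at 30 °C; 1 = growth at the plate median or of vehicle wells; lower values mean less growth of the strain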
# Condition: S. cerevisiae deletion strains, growth OD, locus YLR268W, strain sec22, hits give low values
Out of some 5,500 compounds screened, about 2,000 (36%) were called active. About 18% were inconclusive and are not listed. Some of the results follow.
The entries below come with measured normalized growth values attached.

Previously resolved entries follow.
Ask: Reported normalized growth, compound Cc1cc(=O)c2c(O)c3c(cc2o1)OC(C)(C)CC3 : ____
Result: 0.989 (inactive)

Ask: And then COC(=O)C[C@H]1C(C)(C)C(=O)[C@@H]2CC3=C4CC(OC)O[C@@H](c5ccoc5)[C@]4(C)CCC3[C@@]1(C)C2=O (stereo partly drawn) , what is it?
Result: 1.01 (inactive)

Further cases:
Ask: Please look up its normalized growth: Cn1nnnc1SCC1=C(C(=O)O)N2C(=O)C(NC(=O)C(O)c3ccccc3)C2SC1 (stereo not drawn)
Result: 0.988 (inactive)

Ask: Entry to check: Nc1ccc(C(=O)O)c(O)c1
Result: 0.99 (inactive)

Ask: Another compound to look at: O=C1CC[C@]23C=CC(=O)NCCCCNCCCNC(=O)/C=C/c4ccc(c2c4)O[C@@H]3C1
Result: 1.01 (inactive)

---

Measured normalized growth values are reported for all entries that follow.
# Assay notes: chemical genetic growth profiling, strain panel (AID 1159580);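 also: tested at 20 µM; growth read once vehicle control cultures reached saturation at 30 °C; 1 = growth at the plate median or of vehicle wells; lower values mean less growth of the strain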
# Condition: S. cerevisiae deletion strains, growth OD, locus YGR040W, strain KSS1, hits give low values
In all, about 5,500 compounds went through this assay and about 2,000 (36%) were called active. Inconclusive results (about 18%) are left out. The list shows a part of the results.
Reply with the value as a number alone.

Example entries and their recorded answers appear below.
Ask: Entry N#Cc1c(Br)cnn1Cc1cc(C(F)(F)F)cc(C(F)(F)F)c1 : reported normalized growth = ?
Result: 0.925

Ask: Same for N=c1ccc2nc3c(Cl)c4c(c(Cl)c3oc-2c1S(=O)(=O)O)Nc1ccc(N)c(S(=O)(=O)O)c1O4
Result: 1.02

Ask: And Cc1ccc2c(c1)CCCN2CC(=O)N(c1ccccc1)C1CCCCC1 ?
Result: 0.923

Ask: // repeat for COc1ccc(C2CC(c3ccccc3)=Nc3ccccc3S2)cc1OC (stereo not given) and report
Result: 0.94

Now consider a different compound.
Ask: Fill blank: measured normalized growth of the compound CCCc1cnc(N2CCN(CC(=O)N(c3ccccc3)C3CCCCC3)CC2)nc1 is ____.
Result: 0.985

---

# Assay notes: chemical genetic growth profiling, strain panel (AID 1159580);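 also: tested at 20 µM; growth read once vehicle control cultures reached saturation at 30 °C; 1 = growth at the plate median or of vehicle wells; lower values mean less growth of the strain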
# Condition: S. cerevisiae deletion strains, growth OD, locus YOR070C, strain gyp1, hits give low values
Hit rate of the full screen: of about 5,500 compounds, about 2,000 (36%) were called active. Inconclusive results (about 18%) are left out. This is one part of the list.
Assay readout: normalized growth
Please reply with the number alone, leaving off any unit.

Ask: Entry O=C(O)c1cn(-c2ccc(F)cc2)c2cc(N3CCNCC3)c(F)cc2c1=O has what normalized growth?
Result: 0.984

---

# Assay notes: chemical genetic growth profiling, strain panel (AID 1159580);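 also: tested at 20 µM; growth read once vehicle control cultures reached saturation at 30 °C; 1 = growth at the plate median or of vehicle wells; lower values mean less growth of the strain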
# Condition: S. cerevisiae deletion strains, growth OD, locus YOR061W, strain CKA2, hits give low values
Screen size: about 5,500 compounds; about 2,000 (36%) were called active. Roughly 18% stayed inconclusive and do not appear here. Some of the results follow.
Reported normalized growth values for the following compounds.
Please give the numeric answer without any surrounding text.

Ask: Recorded normalized growth for Cc1cc(C(=O)N(c2ccccc2)C(C)C2CC2)c(Cl)cc1Cl (stereo not drawn) , please?
Result: 0.958

Ask: Follow-up item: CC1(C)O[C@@H]2CC3C4C[C@H](F)C5=CC(=O)C=CC5(C)C4C(O)CC3(C)[C@]2(C(=O)CO)O1 (stereo partly drawn)
Result: 1.02

Ask: And for C=C1C2CC[C@@]3(C)[C@H](c4ccoc4)OC(=O)C[C@]13O[C@H]1CC(=O)C(C)(C)[C@H](C(O)C(=O)OC)[C@@]21C (stereo partly drawn) ?
Result: 1.01

Ask: Please give the result for N#CCCCCOc1ccc2c(=O)cc(-c3ccccc3)oc2c1 too.
Result: 0.961

Ask: Repeat for the following compound: C=CCCCCCCCCCCCC(O)CC(O)CO (stereo not drawn)
Result: 0.635

Others:
Ask: What value of measured normalized growth is listed for C[n+]1cc2c3c(ccc2c2ccc4cc5c(cc4c21)OCO5)OCO3 ?
Result: 0.0586

Ask: And then O=C1Nc2ccccc2/C1=N/N=C\c1ccccc1Cl , what is it?
Result: 0.888

Ask: Entry O=C(/C=C/c1ccccc1)c1ccc(O)cc1 please
Result: 0.877

Ask: Try CC(=O)Nc1ccc(O)cc1 next.
Result: 0.972

Ask: Repeat for the following compound: CC(=O)O[C@H]1C[C@@]2(C)[C@H](c3ccoc3)OC(=O)[C@H]3O[C@]32[C@@]2(C)C1[C@]1(C)C(C[C@H]2OC(C)=O)C(C)(C)[C@H](OC(C)=O)C[C@@H]1OC(C)=O (stereo partly drawn)
Result: 0.966

Ask: And CC(O)(CNCc1ccc(Cl)cc1)CSc1ccccc1Cl (stereo not drawn) ?
Result: 0.964

Ask: Next compound: COc1cc2c3cc1Oc1cc(ccc1O)C[C@@H]1c4c(cc(OC)c(O)c4Oc4ccc(cc4)C[C@@H]3N(C)CC2)CC[N+]1(C)C
Result: 1.01

Ask: Another compound: Cn1nnnc1SCC1=C(C(=O)O)N2C(=O)C(NC(=O)C(O)c3ccccc3)C2SC1 (stereo not drawn)
Result: 1.02
